# assayed-system: human PD-1 (human, UniProt Q15116 25-288)
# Sequence (Q15116 25-288 limits assumed): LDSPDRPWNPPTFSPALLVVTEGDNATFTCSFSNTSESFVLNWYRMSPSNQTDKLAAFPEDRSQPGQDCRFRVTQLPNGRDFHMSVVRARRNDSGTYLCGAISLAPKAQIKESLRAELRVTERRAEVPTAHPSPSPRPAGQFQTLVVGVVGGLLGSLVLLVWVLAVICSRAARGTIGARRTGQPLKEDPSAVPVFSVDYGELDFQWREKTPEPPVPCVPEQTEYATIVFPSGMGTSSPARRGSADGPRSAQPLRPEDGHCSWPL
# assay-comment: cell-based or functional assay
result-type: M07e-hPD-1 cell proliferation ratio (%) at 0.1 nM

>  <binder>
A-N88D-M27 (Fc fusion, not shown: IgG1 hinge (C220S) + Fc Knob chain as in A-N88D; IgG1 hinge (C220S) + Fc Hole chain as in A-N88D) chain (part 1 of 2): EVQLVESGGGLVQPGGSLRLSCAASGLTFSSYSMSWYRQAPGKGRELVAIISGSGGITHYVDSVKGRFTISRDNAKNTLYLQMRSLRAEDTAVYYCRAVSDWQDYWGQGTQVTVSS chain (part 2 of 2): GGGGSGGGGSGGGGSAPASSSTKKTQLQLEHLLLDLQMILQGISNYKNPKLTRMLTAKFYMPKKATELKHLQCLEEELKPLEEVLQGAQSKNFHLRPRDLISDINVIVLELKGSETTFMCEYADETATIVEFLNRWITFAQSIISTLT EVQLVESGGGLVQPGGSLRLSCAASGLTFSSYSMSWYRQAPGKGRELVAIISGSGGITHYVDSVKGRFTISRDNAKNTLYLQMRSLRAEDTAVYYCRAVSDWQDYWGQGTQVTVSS

>  <result>
9.3%

$$$$
>  <binder>
A-N88D (Fc fusion, also called PD-1-IL-2v (N88D); not shown: IgG1 hinge (C220S) + Fc Knob chain (L234A, L235A, S354C, T366W, EU); D356/L358 or E356/M358 ver; IgG1 hinge (C220S) + Fc Hole chain (L234A, L235A, Y349C, T366S, L368A, Y407V; may have H435R, Y436F; EU)) chain (part 1 of 2): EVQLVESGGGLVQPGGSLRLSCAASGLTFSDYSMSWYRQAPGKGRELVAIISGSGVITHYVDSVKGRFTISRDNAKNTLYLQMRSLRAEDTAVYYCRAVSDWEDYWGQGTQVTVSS chain (part 2 of 2): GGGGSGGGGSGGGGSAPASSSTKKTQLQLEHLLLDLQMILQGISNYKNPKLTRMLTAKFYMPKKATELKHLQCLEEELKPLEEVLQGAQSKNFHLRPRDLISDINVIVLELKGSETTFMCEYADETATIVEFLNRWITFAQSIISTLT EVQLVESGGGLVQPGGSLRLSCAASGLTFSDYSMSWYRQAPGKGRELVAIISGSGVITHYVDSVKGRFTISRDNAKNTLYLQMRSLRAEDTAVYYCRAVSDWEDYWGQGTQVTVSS

>  <result>
30.8%

$$$$
>  <binder>
A-N88D-M15 (Fc fusion, not shown: IgG1 hinge (C220S) + Fc Knob chain as in A-N88D; IgG1 hinge (C220S) + Fc Hole chain as in A-N88D) chain (part 1 of 2): EVQLVESGGGLVQPGGSLRLSCAASGLTFSDYSMSWYRQAPGKGRELVAIISGSGGITHYVDSVKGRFTISRDNAKNTLYLQMRSLRAEDTAVYYCRAVSDWEDYWGQGTQVTVSS chain (part 2 of 2): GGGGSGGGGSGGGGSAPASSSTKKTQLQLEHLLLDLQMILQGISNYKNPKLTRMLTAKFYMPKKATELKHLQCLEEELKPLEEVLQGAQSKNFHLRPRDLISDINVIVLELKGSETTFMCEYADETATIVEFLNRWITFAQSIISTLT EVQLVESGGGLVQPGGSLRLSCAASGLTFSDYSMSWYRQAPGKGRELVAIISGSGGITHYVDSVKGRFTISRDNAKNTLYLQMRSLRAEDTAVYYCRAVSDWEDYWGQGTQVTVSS

>  <result>
17%

$$$$
